- system: T1, Human CD137 ECD (human)
- T1 construct: also called 4-1BB
- T1 sequence (chain, as listed by the source limits assumed): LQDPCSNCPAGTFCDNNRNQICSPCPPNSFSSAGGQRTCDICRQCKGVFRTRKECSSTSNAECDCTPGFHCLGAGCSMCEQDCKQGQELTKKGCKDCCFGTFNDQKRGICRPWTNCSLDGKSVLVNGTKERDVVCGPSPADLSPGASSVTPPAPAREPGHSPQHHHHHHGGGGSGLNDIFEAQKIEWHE
- method-description: single mutant vs template dBBDu183H
Sorting guide: entries reporting fold change of affinity beneath 0.5 fold go in the True pile, the rest go in the False pile.

Example results:
H183/L072 VH G52cA (antibody, name in Kabat numbering, V domains shown) VH: QVQLVESGGGLVQPGRSLRLSCAASGFTFSNAWMHWVRQAPGKGLEWVAQIKDKANAYAAYYAPSVKGRFTISRDDSKNSIYLQMNSLKTEDTAVYYCHYVHYASASTVLPAFGVDAWGQGTTVTVSS VL: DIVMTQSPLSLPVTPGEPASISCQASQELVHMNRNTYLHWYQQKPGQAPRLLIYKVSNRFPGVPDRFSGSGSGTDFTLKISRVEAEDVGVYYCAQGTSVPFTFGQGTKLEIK ... False
H183/L072 VH H96P (antibody, name in Kabat numbering, V domains shown) VH: QVQLVESGGGLVQPGRSLRLSCAASGFTFSNAWMHWVRQAPGKGLEWVAQIKDKGNAYAAYYAPSVKGRFTISRDDSKNSIYLQMNSLKTEDTAVYYCHYVPYASASTVLPAFGVDAWGQGTTVTVSS VL: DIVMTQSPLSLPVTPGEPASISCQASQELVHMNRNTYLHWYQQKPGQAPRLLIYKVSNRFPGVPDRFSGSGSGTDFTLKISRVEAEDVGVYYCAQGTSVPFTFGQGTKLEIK ... True
H183/L072 VH Y58T (antibody, name in Kabat numbering, V domains shown) VH: QVQLVESGGGLVQPGRSLRLSCAASGFTFSNAWMHWVRQAPGKGLEWVAQIKDKGNAYAATYAPSVKGRFTISRDDSKNSIYLQMNSLKTEDTAVYYCHYVHYASASTVLPAFGVDAWGQGTTVTVSS VL: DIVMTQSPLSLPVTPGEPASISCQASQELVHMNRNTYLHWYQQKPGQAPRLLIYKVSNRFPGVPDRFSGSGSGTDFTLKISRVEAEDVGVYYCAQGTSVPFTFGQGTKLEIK ... True
H183/L072 VH H96A (antibody, name in Kabat numbering, V domains shown) VH: QVQLVESGGGLVQPGRSLRLSCAASGFTFSNAWMHWVRQAPGKGLEWVAQIKDKGNAYAAYYAPSVKGRFTISRDDSKNSIYLQMNSLKTEDTAVYYCHYVAYASASTVLPAFGVDAWGQGTTVTVSS VL: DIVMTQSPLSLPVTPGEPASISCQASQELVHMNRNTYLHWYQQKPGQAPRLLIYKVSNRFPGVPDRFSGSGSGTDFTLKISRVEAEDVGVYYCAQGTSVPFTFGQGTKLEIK ... True
H183/L072 VH Y58S (antibody, name in Kabat numbering, V domains shown) VH: QVQLVESGGGLVQPGRSLRLSCAASGFTFSNAWMHWVRQAPGKGLEWVAQIKDKGNAYAASYAPSVKGRFTISRDDSKNSIYLQMNSLKTEDTAVYYCHYVHYASASTVLPAFGVDAWGQGTTVTVSS VL: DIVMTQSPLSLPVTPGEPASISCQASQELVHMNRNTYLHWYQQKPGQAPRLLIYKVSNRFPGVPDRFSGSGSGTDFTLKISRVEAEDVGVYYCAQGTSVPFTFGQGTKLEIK ... True
H183/L072 VH A57N (antibody, name in Kabat numbering, V domains shown) VH: QVQLVESGGGLVQPGRSLRLSCAASGFTFSNAWMHWVRQAPGKGLEWVAQIKDKGNAYANYYAPSVKGRFTISRDDSKNSIYLQMNSLKTEDTAVYYCHYVHYASASTVLPAFGVDAWGQGTTVTVSS VL: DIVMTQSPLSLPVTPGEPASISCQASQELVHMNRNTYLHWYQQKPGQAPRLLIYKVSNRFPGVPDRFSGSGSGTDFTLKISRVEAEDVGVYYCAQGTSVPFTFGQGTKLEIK ... True
H183/L072 VH G52cN (antibody, name in Kabat numbering, V domains shown) VH: QVQLVESGGGLVQPGRSLRLSCAASGFTFSNAWMHWVRQAPGKGLEWVAQIKDKNNAYAAYYAPSVKGRFTISRDDSKNSIYLQMNSLKTEDTAVYYCHYVHYASASTVLPAFGVDAWGQGTTVTVSS VL: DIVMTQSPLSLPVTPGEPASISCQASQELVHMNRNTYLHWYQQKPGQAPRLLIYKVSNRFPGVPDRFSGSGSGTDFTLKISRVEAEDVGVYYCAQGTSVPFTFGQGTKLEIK ... False
H183/L072 VH M34L (antibody, name in Kabat numbering, V domains shown) VH: QVQLVESGGGLVQPGRSLRLSCAASGFTFSNAWLHWVRQAPGKGLEWVAQIKDKGNAYAAYYAPSVKGRFTISRDDSKNSIYLQMNSLKTEDTAVYYCHYVHYASASTVLPAFGVDAWGQGTTVTVSS VL: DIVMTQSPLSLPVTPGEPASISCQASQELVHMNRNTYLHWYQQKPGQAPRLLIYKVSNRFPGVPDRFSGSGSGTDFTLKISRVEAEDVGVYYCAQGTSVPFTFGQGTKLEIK ... False

Is fold change of affinity strictly under 0.5 fold for the entry H183/L072 VH V63I (antibody, name in Kabat numbering, V domains shown) VH: QVQLVESGGGLVQPGRSLRLSCAASGFTFSNAWMHWVRQAPGKGLEWVAQIKDKGNAYAAYYAPSIKGRFTISRDDSKNSIYLQMNSLKTEDTAVYYCHYVHYASASTVLPAFGVDAWGQGTTVTVSS VL: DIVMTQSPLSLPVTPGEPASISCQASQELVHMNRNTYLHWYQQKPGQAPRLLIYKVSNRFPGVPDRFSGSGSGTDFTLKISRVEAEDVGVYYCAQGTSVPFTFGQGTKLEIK ?
False
